Parameter: pKi. Scope: all listed entries.
target: Cannabinoid receptor 1 (Rattus norvegicus)
Sequence (P20272 whole entry): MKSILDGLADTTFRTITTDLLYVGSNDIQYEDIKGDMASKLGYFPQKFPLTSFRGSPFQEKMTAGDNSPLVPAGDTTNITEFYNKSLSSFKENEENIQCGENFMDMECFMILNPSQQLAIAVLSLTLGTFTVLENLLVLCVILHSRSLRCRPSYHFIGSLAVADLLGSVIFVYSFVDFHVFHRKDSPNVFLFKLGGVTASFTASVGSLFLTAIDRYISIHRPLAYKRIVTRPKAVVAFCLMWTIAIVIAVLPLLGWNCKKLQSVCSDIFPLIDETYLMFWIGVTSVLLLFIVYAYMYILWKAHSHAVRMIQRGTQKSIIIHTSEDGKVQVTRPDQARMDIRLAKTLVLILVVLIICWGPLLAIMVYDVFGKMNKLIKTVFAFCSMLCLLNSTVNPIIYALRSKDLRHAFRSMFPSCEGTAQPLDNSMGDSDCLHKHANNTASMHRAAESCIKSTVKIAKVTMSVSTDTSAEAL
Value format note: pKi is -log10 of concentration (mol/L); just state the number.

# count of solved cases: 2
CC1=C[C@H]2c3c(O)cc(CCCCCO)cc3OC(C)(C)[C@@H]2CC1
7.06
CCCC(C)(C)c1ccc([C@H]2CCC[C@@H](O)C2)c(O)c1
5.42

--- query ---
Query: Given the entry CCCCC[C@@H](C)[C@H](C)c1cc(O)c2c(c1)OC(C)(C)[C@@H]1CC=C(C)C[C@@H]21 , what pKi was observed with Cannabinoid receptor 1 (Rattus norvegicus)?
Reply: 8.80

###

target: Cannabinoid receptor 1 (Rattus norvegicus)
Lab note: cut-off is 8 nM. Strictly less in Ki is True. Exactly 8 nM or more is False.

Consider the worked cases shown below.
CCCCCc1cc(OC(N)=O)c2c(c1)OC(C)(C)[C@@H]1CCC(C)=C[C@@H]21 [THC, 1-O-Carbamoyl]
False
CCCCCc1cc(OC)c2c(c1)OC(C)(C)[C@@H]1CCC(C)=C[C@@H]21 [THC, 1-O-methyl-delta 9]
False
CCCCCc1cc(O)c2c(c1)OC(C)(C)[C@@H]1CCC(C(=O)O)=C[C@@H]21 [THC, 9-Nor-9-carboxy-delta 9]
False
CC(C)(C)c1ccc([C@H]2CCC[C@@H](O)C2)c(O)c1 [Bicyclic analogs I]
False
C=C1CC[C@@H]2[C@@H](C1)c1c(OC)cc(CCCCC)cc1OC2(C)C [THC, 1-O-methyl-delta 9,11]
False
CC1=C[C@H]2c3c(O)cc(CCCCC(F)(F)F)cc3OC(C)(C)[C@@H]2CC1 [THC, 5'-F3]
False

Now for another entry.
Query: Hello, I'm reviewing records and need to know if Ki of CCCCCCCCCC(C)(C)c1ccc([C@H]2CCC[C@@H](O)C2)c(O)c1 [Bicyclic analogs IX] is below 8 nM. Could you check?
Reply: False
